assay: NFAT Signaling Pathway (AID 444); conditions: Jurkat NFAT-bla M1, carbachol, beta-lactamase ratio, 5 h; at 7.69 µM (top of the series) unless noted;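 note: carbachol stimulus at about its EC50 of 1 µM final; % is set by controls: 0 for no effect and ±100 for the full control effect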
Records with an inconclusive call do not appear. Active and inactive are the calls of the source. Calls come from the whole dose curve; as a rule, active = well fitted curve in either direction with a large enough effect (not every such curve was filed as active); inconclusive = small, poorly fitted or top-dose-only effect, or another doubt; inactive = flat fitted curve, though single readings scatter.
Record form. Attribute: activity change, negative = inhibition. Fill in for each entry.

Please fill in: activity change, negative = inhibition reported for `COc1ccccc1-c1ccc2ncnc(N(C)C)c2c1` = -2.93% (inactive)

Please fill in: activity change, negative = inhibition reported for `Cc1noc(C)c1C(=O)N1CCC2(CCCN(c3ncccn3)C2)CC1` = 7.66% (inactive)

Please fill in: activity change, negative = inhibition reported for `FC(F)(F)c1ccccc1-c1nccc(NCc2ccccc2)n1` = -3.71% (inactive)

Please fill in: activity change, negative = inhibition reported for `N#CCCn1c(=O)c(CCc2ccccc2)nc2cnc(Nc3ccccc3)nc21` = -25.2% (inactive)

Please fill in: activity change, negative = inhibition reported for `CN(C)C(=O)c1ccc(-c2ccc3ncnc(NCc4cccnc4)c3c2)cc1` = 14% (inactive)

Please fill in: activity change, negative = inhibition reported for `O=S(=O)(c1ccccc1)N1CCC2(CCCN(C(c3ccccc3)c3ccccc3)C2)CC1` = -9.54% (inactive)

Please fill in: activity change, negative = inhibition reported for `COCC(=O)N1CCC[C@@]2(CCN(c3ccccn3)C2)C1` = -11.3% (inactive)

Please fill in: activity change, negative = inhibition reported for `COc1cccc(-c2ccc3ncnc(NC4CC4)c3c2)c1` = 2.56% (inactive)

Please fill in: activity change, negative = inhibition reported for `COc1cccc(Cn2c(=O)c(-c3cn(C)c4ccccc34)nc3cnc(OC)nc32)c1` = 1.88% (inactive)

Please fill in: activity change, negative = inhibition reported for `O=C(Nc1ccccc1)N1CC2(CCN(S(=O)(=O)c3ccccc3)CC2)C1` = 16.1% (inactive)

Please fill in: activity change, negative = inhibition reported for `O=C(Nc1cccc(F)c1)N1CC2(CCN(C(=O)c3cccc(F)c3)CC2)C1` = 22.7% (inactive)
